# assayed-system: trypsin (human)
# protocol-notes: enzyme inhibition
Positions of bridges follow the written chain, without caps; N, C: chain ends. No end group written: not given here.
measured-metric: Ki
Your reply should be a number followed by the unit it is expressed in.

Incoming: Query Ki for GCTRQYPC (linker 2-8 via 1,3‑dibromoacetone) [peptide 035 (lead KLK5 inhibitor)]
Outgoing: 60 µM
